These entries and their values trace back to patent US9586928B2.

Test target: RORγ (Homo sapiens, UniProt P51449)
Construct: expressed in transfected cells; host or cells: HEK293T
Sequence (P51449 269-508 limits assumed): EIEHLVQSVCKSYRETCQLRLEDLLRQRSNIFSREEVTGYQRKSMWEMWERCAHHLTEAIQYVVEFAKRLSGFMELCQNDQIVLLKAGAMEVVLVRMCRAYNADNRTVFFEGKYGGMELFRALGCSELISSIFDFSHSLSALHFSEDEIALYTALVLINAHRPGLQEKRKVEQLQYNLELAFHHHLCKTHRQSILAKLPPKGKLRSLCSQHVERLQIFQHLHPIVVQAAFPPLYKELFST
Protocol description: Gal4-RORγ LBD / UAS luciferase cotransfection assay
Assay type: cell-based
Condition parameters: 10 μM
Consider the following compounds; for each one, report its RORγ repression, fold change over DMSO.
Answers are plain numbers, in fold change over DMSO.

Examples with answers:
The compound listed as `O=S(=O)(c1cccs1)N1CCN(Cc2ccc(-c3ccc(C(O)(C(F)(F)F)C(F)(F)F)cc3)cc2)CC1` shows RORγ repression, fold change over DMSO equal to 3.0

The compound listed as `OC(c1ccc(-c2ccc(CN3CCN(Cc4cscn4)CC3)cc2)cc1)(C(F)(F)F)C(F)(F)F` shows RORγ repression, fold change over DMSO equal to 0.31

State the recorded RORγ repression, fold change over DMSO for every item in the following list.
1. OC(c1ccc(-c2ccc(CN3CCN(Cc4ccncc4Cl)CC3)cc2)cc1)(C(F)(F)F)C(F)(F)F
2. OC(c1ccc(-c2ccc(CN3CCN(CC4COc5ccccc5O4)CC3)cc2)cc1)(C(F)(F)F)C(F)(F)F (centres unmarked)
3. O=C(c1cscn1)N1CCN(Cc2ccc(-c3ccc(C(O)(C(F)(F)F)C(F)(F)F)cc3)cc2)CC1
4. OC(c1ccc(-c2ccc(CN3CCN(Cc4cncs4)CC3)cc2)cc1)(C(F)(F)F)C(F)(F)F
5. OC(c1ccc(-c2ccc(CN3CCC(Nc4ccncc4)CC3)cc2)cc1)(C(F)(F)F)C(F)(F)F
6. OC(c1ccc(-c2ccc(CN3CCN(c4ccncc4)CC3)cc2)cc1)(C(F)(F)F)C(F)(F)F

*A*
[0.1, 0.35, 0.59, 0.87, 0.1, 0.4]
